Test system: HCT116 cells
Test: Inhibition of proliferation of the human colon tumor line HCT116 ([14C]-thymidine incorporation)
Format: cell-based
Conditions: Homo sapiens, HCT-116, 48 h, 48 hours at 37° C., read-out: Inhibition of HCT116 proliferation IC 50 (μm)
Method: The proliferation of HCT116 cells is evaluated by measuring the incorporation of [^14C]-thymidine in the following manner. […] [^14C]-thymidine (0.1 μCi/well) and the products to be evaluated are then added. […] 48 hours after incubation at 37° C., the radioactivity incorporated into the cells is measured by counting the plate in a TRI-LUX counter (Wallac). […]
Threshold-based label: IC50 under 300 nM gives t, IC50 not under 300 nM gives f.

- molecule: "COc1cccc(-n2nc(C)cc2C(=O)N2CCN(c3cccc(Cl)c3)CC2)c1 [3/35]"
  answerLabel: "t"
- molecule: "Cc1cc(C(=O)N2CCN(c3cccc(Cl)n3)CC2)n(-c2ccccc2)n1 [Example E4]"
  answerLabel: "t"
- molecule: "COc1ccccc1N1CCN(C(=O)c2cc(C)nn2-c2cccc(F)c2)CC1 [3/90]"
  answerLabel: "t"
- molecule: "Cc1cc(C(=O)N2CCN(c3cccc4ccccc34)CC2)n(-c2ccc(F)cc2)n1 [3/59]"
  answerLabel: "f"
- molecule: "Cc1cc(C(=O)N2CCN(c3cccc([N+](=O)[O-])c3)CC2)n(-c2ccccc2)n1 [Example E5]"
  answerLabel: "t"
- molecule: "Cc1cccc(-n2nc(C)cc2C(=O)N2CCN(c3cccc(Cl)c3Cl)CC2)c1 [3/116]"
  answerLabel: "t"
- molecule: "O=C(c1cc(C(F)(F)F)nn1-c1ccccc1)N1CCN(c2cccc(Cl)c2)CC1 [Example E118]"
  answerLabel: "f"
- molecule: "COc1cccc(N2CCN(C(=O)c3cc(C)nn3-c3ccc(C)cc3)CC2)c1 [3/80]"
  answerLabel: "t"
- molecule: "O=C(c1cc(COCc2ccccc2)nn1-c1ccccc1)N1CCN(c2cccc(Cl)c2)CC1 [Example E80]"
  answerLabel: "f"

----------
Biological target: tubulin (Sus scrofa, UniProt P02550+P02554)
Construct: Tubulin is purified from pig brain according to published methods
Sequence (P02550 whole entry): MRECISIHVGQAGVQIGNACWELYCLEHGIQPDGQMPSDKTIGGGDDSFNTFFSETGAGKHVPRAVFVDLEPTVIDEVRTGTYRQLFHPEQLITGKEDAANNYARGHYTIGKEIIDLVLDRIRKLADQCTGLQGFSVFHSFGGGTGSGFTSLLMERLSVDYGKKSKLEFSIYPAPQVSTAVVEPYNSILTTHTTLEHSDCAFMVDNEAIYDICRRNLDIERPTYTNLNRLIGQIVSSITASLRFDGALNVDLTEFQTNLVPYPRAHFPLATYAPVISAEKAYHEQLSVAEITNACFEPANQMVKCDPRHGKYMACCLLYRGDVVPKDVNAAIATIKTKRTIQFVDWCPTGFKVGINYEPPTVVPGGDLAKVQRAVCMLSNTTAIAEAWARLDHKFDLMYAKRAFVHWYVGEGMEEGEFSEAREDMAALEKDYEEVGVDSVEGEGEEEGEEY
Sequence (P02554 whole entry): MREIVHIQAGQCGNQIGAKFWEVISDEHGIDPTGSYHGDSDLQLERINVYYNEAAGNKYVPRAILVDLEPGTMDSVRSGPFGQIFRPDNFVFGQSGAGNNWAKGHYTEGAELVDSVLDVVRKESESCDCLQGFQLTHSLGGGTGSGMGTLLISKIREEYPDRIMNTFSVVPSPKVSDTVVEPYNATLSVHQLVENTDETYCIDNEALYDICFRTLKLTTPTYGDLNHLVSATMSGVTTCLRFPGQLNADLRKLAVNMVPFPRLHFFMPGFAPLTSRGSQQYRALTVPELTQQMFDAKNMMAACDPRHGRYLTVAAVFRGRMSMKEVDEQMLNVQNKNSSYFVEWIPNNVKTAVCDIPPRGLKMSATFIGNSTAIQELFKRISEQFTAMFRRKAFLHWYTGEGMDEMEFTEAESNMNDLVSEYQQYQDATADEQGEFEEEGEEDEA
Assay: Evaluation of the inhibition of tubulin polymerization (turbidimetry)
Conditions: tubulin 10 μm (1 mg/ml), 37° C., turbidity at 350 nm; concentration that inhibits the rate of polymerization by 50%; read-out: Inhibition of tubulin polymerization IC 50 (μm)
Method: Tubulin is purified from pig brain according to published methods (Shelanski et al., 1973, Proc. Natl. Acad. Sci. USA, 70, 765-768. Weingarten et al., 1975, Proc. Natl. Acad. Sci. USA, 72, 1858-1862). […] The polymerization of tubulin to microtubules is monitored by turbidimetry as follows: the tubulin is adjusted to a concentration of 10 μm (1 mg/ml) in RB/2 30% glycerol buffer to which 1 mM GTP and 6 mM MgCl2 are added. […] The increase in the turbidity of the solution is monitored at 350 nm. […]
Counter-ions that a name gives are not always drawn.
IC50 reference

- compound: "Cc1cccc(-n2nc(C)cc2C(=O)N2CCN(c3cccc(C)c3C)CC2)c1"
  inequalityOperator: "="
  IC50 (µM): 0.8
- compound: "Cc1cccc(N2CCN(C(=O)c3cc(C)nn3-c3ccccc3)CC2C)c1 (centres unmarked)"
  inequalityOperator: "="
  IC50 (µM): 8
- compound: "COc1cc(OC)cc(N2CCN(C(=O)c3cc(/C=N\\O)nn3-c3ccccc3)CC2)c1"
  inequalityOperator: "="
  IC50 (µM): 0.8
- compound: "Cc1cc(C(=O)N2CCN(c3cccc(Cl)c3)CC2)n(-c2ccc(F)cc2F)n1"
  inequalityOperator: "="
  IC50 (µM): 2.09
- compound: "Cc1cc(C(=O)N2CCN(c3cccc(Cl)c3)CC2)n(-c2nccs2)n1"
  inequalityOperator: "="
  IC50 (µM): 2
- compound: "Cc1cc(C(=O)N2CCN(c3cc(Cl)cc(Cl)c3)CC2)n(-c2ccccc2)n1 [Example E2]"
  inequalityOperator: "="
  IC50 (µM): 1.5
- compound: "COc1cc(OC)cc(N2CCN(C(=O)c3cc(C(F)(F)F)nn3-c3ccccc3)CC2)c1"
  inequalityOperator: "="
  IC50 (µM): 7.9
- compound: "NC(=O)c1cccc(N2CCN(C(=O)c3ccnn3-c3ccccc3)CC2)c1"
  inequalityOperator: "="
  IC50 (µM): 1
- compound: "Cc1cc(C(=O)N2CCN(c3cccc(OC(F)F)c3)CC2)n(-c2ccccc2)n1 [Example E136, hydrochloride]"
  inequalityOperator: "="
  IC50 (µM): 1.3
- compound: "Cc1cc(C(=O)N2CCN(c3ccc4c(c3)OCCO4)CC2)n(-c2cccc(F)c2)n1"
  inequalityOperator: "<"
  IC50 (µM): 25
- compound: "Cc1cccc(-n2nc(C)cc2C(=O)N2CCN(c3cc(Cl)ccc3C)CC2)c1"
  inequalityOperator: "="
  IC50 (µM): 1.2
- compound: "Cc1cc(C(=O)N2CCN(c3cccc(C)c3C)CC2)n(-c2ccccc2)n1"
  inequalityOperator: "="
  IC50 (µM): 7
- compound: "Cc1cc(C(=O)N2CCN(c3cccc(NCCO)c3)CC2)n(-c2ccccc2)n1"
  inequalityOperator: "="
  IC50 (µM): 1
- compound: "Cc1cc(C(=O)N2CCN(c3cncc4ccccc34)CC2)n(-c2ccccc2)n1"
  inequalityOperator: "="
  IC50 (µM): 4.5
- compound: "CCOc1ccccc1N1CCN(C(=O)c2cc(C)nn2-c2cccc(C)c2)CC1"
  inequalityOperator: "="
  IC50 (µM): 20
- compound: "Cc1cc(C(=O)N2CCN(c3ccccc3C(F)(F)F)CC2)n(-c2ccccc2F)n1"
  inequalityOperator: "="
  IC50 (µM): 10
- compound: "Cc1cc(C(=O)N2CCN(c3cccc(CO)c3)CC2)n(-c2ccccc2)n1"
  inequalityOperator: "="
  IC50 (µM): 0.9
- compound: "Cc1cc(C(=O)N2CCN(c3ccc(C)c(C)c3)CC2)n(-c2ccc(F)cc2)n1"
  inequalityOperator: "="
  IC50 (µM): 21
- compound: "COc1ccc(Cl)cc1N1CCN(C(=O)c2cc(C)nn2-c2cccc(C)c2)CC1"
  inequalityOperator: "="
  IC50 (µM): 1
- compound: "COc1cc(OC)cc(N2CCN(C(=O)c3cc(Br)nn3-c3ccccc3)CC2)c1"
  inequalityOperator: "="
  IC50 (µM): 0.94
- compound: "Cc1cc(C(=O)N2CCN(c3ccnc4ccccc34)CC2)n(-c2ccccc2)n1"
  inequalityOperator: "="
  IC50 (µM): 1.5
- compound: "Cc1cccc(N2CCN(C(=O)c3cc(C)nn3-c3ccccc3)CC2)c1"
  inequalityOperator: "="
  IC50 (µM): 3
- compound: "Cc1cc(C(=O)N2CCN(c3ccc(C)c(Cl)c3)CC2)n(-c2ccccc2)n1"
  inequalityOperator: "="
  IC50 (µM): 1.7
- compound: "COc1cc(OC)cc(N2CCN(C(=O)c3cc(N4CCCC4)nn3-c3ccccc3)CC2)c1"
  inequalityOperator: "="
  IC50 (µM): 2.02
- compound: "Cc1cc(C(=O)N2CCN(c3ccc4c(c3)OCO4)CC2)n(-c2ccccc2)n1"
  inequalityOperator: "="
  IC50 (µM): 2.3
- compound: "Cc1cc(C(=O)N2CCN(c3nccc4ccccc34)CC2)n(-c2ccccc2)n1.Cl [Example E15, hydrochloride]"
  inequalityOperator: "="
  IC50 (µM): 14
- compound: "Cc1cc(C(=O)N2CCN(c3cccc(Cl)c3)CC2)n(-c2cccc(F)c2)n1"
  inequalityOperator: "="
  IC50 (µM): 2
- compound: "Cc1cc(C(=O)N2CCN(c3ccccc3)CC2)n(-c2cccc(F)c2)n1"
  inequalityOperator: "="
  IC50 (µM): 2.2
- compound: "Cc1cc(C(=O)N2CCN(c3ccc(Cl)c(Cl)c3)CC2)n(-c2ccc(F)cc2)n1"
  inequalityOperator: "="
  IC50 (µM): 1.3
- compound: "COc1ccccc1N1CCN(C(=O)c2cc(C)nn2-c2ccccc2)CC1"
  inequalityOperator: "="
  IC50 (µM): 5.6
- compound: "Cc1cc(C(=O)N2CCN(c3cc(Cl)ccc3Br)CC2)n(-c2ccccc2)n1"
  inequalityOperator: "="
  IC50 (µM): 0.7
- compound: "COc1cccc(N2CCN(C(=O)c3cc(C)nn3-c3ccccc3)CC2)c1"
  inequalityOperator: "="
  IC50 (µM): 2
- compound: "Cc1cc(C(=O)N2CCN(c3ccccc3)CC2)n(-c2cccc(Cl)c2)n1"
  inequalityOperator: "="
  IC50 (µM): 3
- compound: "Cc1cc(C(=O)N2CCN(c3cccc(C)c3C)CC2)n(-c2cccc(F)c2)n1"
  inequalityOperator: "="
  IC50 (µM): 0.8
- compound: "O=C(c1cc(Br)nn1-c1ccc(Br)cc1)N1CCN(c2cccc(Cl)c2)CC1"
  inequalityOperator: "="
  IC50 (µM): 3.5
